Biological target: fusion protein PRT
Sequence (chain, as listed by the source): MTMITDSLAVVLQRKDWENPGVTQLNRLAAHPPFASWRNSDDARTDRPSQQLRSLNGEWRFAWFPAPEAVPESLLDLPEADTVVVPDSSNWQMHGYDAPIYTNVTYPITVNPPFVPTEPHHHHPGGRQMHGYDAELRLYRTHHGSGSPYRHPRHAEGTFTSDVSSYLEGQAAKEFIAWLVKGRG
measurement kind: relative cleavage efficiency

Lab book: relative cleavage efficiency of OmpT protease variant OmpT D97E (protein) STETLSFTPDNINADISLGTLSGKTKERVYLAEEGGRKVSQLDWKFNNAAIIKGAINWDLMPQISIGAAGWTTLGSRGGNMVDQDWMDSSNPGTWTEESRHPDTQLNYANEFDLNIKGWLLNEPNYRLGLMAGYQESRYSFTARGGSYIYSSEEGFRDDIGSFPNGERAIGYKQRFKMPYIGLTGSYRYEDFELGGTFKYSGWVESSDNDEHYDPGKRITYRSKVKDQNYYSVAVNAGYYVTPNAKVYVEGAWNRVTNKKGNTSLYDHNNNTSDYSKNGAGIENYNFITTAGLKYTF noted as < 3%
